assay: recombinant UMI read abundance after kanamycin selection (control-corrected) (log10(CPM+1)); higher = more efficient recombination; extreme values may be limits of the assay; sequences stand for … in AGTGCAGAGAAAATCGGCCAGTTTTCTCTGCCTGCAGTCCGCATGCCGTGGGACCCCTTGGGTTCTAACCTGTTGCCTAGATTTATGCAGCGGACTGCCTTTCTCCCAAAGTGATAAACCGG…AGGTTGGTTTCACT; site = the 11-nt donor;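 note: IS621 bridge recombinase in Escherichia coli cells against a fixed T5 target plasmid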
Recorded Metric: recombinant UMI read abundance (log10)
Quick one: just the number, no unit, thanks!

Here's what some known entries look like.
CGGGAACCATGGACCGGTTTTCCCGGTAATCCGTATTTGCT (site CGGGAACCTAA)
0
CCACGTGCATGGACCGGTTTTCCCGGTAATCCGTATTTGAT (site CCAGGTGCTAT)
0.0128
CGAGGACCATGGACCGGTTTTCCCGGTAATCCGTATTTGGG (site CCAGGACCTCC)
0.059
CCCTTTACATGGACCGGTTTTCCCGGTAATCCGTATTTGCT (site CCATTTACTAG)
0
AAATCCGCATGGACCGGTTTTCCCGGTAATCCGTATTTGTC (site AAATCCGCTGA)
2.33
GGAGGGGCATGGACCGGTTTTCCCGGTAATCCGTATTTGGT (site GGAGGGGCTAC)
0.699

// returns reported recombinant UMI read abundance (log10) for input GGCCCGCCATGGACCGGTTTTCCCGGTAATCCGTATTTGAA (site GGCCCGCCTTT)
0

Given the sequence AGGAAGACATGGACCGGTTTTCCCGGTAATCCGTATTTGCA (site AGGTAGACTTT) , what is its reported recombinant UMI read abundance (log10)?
0.0208

What value of recombinant UMI read abundance (log10) has been recorded for this entry: AACTATACATGGACCGGTTTTCCCGGTAATCCGTATTTGAC (site AACTATACTGT)
2.31

What does the record list as recombinant UMI read abundance (log10) for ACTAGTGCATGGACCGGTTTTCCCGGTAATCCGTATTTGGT (site AGTAGTGCTAC) ?
0.424

Query: recombinant UMI read abundance (log10); subject: GTTCTTCCATGGACCGGTTTTCCCGGTAATCCGTATTTGGT (site GTTTTTCCTAC)
0

Request the reported recombinant UMI read abundance (log10) associated with AGCTCAGCATGGACCGGTTTTCCCGGTAATCCGTATTTGCG (site AGCTCAGCTCG)
0.537

// lookup recombinant UMI read abundance (log10) for GCGAAGCCATGGACCGGTTTTCCCGGTAATCCGTATTTGCG (site GCGAAGCCTCT)
0.455

Quick one: recombinant UMI read abundance (log10) of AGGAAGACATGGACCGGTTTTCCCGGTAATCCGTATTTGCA (site AGGAAGCCTTG) ?
0

Which recombinant UMI read abundance (log10) value is on record for TGGCCTTCATGGACCGGTTTTCCCGGTAATCCGTATTTGGT (site TGGCCTTCTAC) ?
0.00327

Tell me the measured recombinant UMI read abundance (log10) of TTTCGAGCATGGACCGGTTTTCCCGGTAATCCGTATTTGCA (site TTTCGAGCTTG) , please.
1.31
